B1: Azoarcus group I ribozyme (parent)
chain: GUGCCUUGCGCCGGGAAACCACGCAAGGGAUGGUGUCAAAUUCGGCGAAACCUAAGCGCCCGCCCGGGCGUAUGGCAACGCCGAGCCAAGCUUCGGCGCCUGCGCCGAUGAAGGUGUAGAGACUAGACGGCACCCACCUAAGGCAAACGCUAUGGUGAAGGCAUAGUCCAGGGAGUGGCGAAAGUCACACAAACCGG

Variants of: B1
Assay: reverse-splicing fitness (ratio to wild type); higher = more active; in vitro selection; Mg2+ level not given

variant-label	reverse-splicing fitness
A111U A120U C150A C169U U176G	0.00212
C82U A111G A120G A145C C150A U176A	0.00929
C82U A120C A145C C150G	0.0204
C82U A120C A145G C150A C169G U176G	0.00377
C82G A111G A120G A145G C150A C169A U176C	0.0231
C82A A111U A145U C169G U176G	0.00625
A111G A145C C150A C169U	0.0168
C82G A120C A145C C150A U176C	0.0118
C82A A120G A145C U176G	0.00396
C82A A111U C150A C169U U176A	0.0167
C82G A111C A120C A145G C169A	0.00871
C82U A111G A120C A145C C150U C169U U176G	0.00402
A111U A120U C150U C169A U176C	0.00279
C82U A111C A120C A145G C150A C169U U176A	0.0176
C82A A111G A120U A145C C150U C169U U176C	0.0025
C82A A111C C169U	0.0139
C82G A111G A120U A145G C150G C169G U176C	0.00607
C82A A111G A120G A145U C150A C169U U176C	0.0157
A111G A120U A145U	0.759
C82A A111C A120U A145G C150A C169G U176G	0.00261
C82U A111C A120U A145U C150G C169A U176C	0.00322
A111G A145C C150U C169G U176G	0.00586
A111C C150G U176G	0.0131
C82U A120U C150A C169U U176G	0.00201
A120G C150A C169G	0.0903
C82U A111U A120U A145C C169U U176C	0.0022
C82A A111C A145U C169A U176G	0.0095
C82U A111U A120U U176C	0.0117
A111U A120C A145C C150A U176C	0.0236
A111G	1.01
C82G A120G A145C U176G	0.00484
A111U A120U A145G C150U C169U	0.0617
C82A A120U A145G U176G	0.0073
C82U A120C A145G C150G U176A	0.00924
C82U A145U C150A C169G	0.00614
C82A A111C A145G C150U C169G	0.00915
C82A A111C A120G A145G C150A C169G	0.00887
A111G A120C C150A C169A	0.00922
C82U A111G A120C A145U C169G U176G	0.00375
A111G A120G A145U C150U C169G U176A	0.0574
C82A A120C A145C C150G U176A	0.0063
C82U A111U A120C A145U C150G C169U U176G	0.00523
C82A A111G A120U A145U C150A C169U U176G	0.0018
C82A A111C A120G A145G C150A C169U U176A	0.0154
C82G A111U A120C A145G C169A	0.0109
C82G A111G A145C C150U C169G U176A	0.0203

The measured values listed here are drawn from the RNAGym collection of RNA variant scans (doi:10.1093/molbev/msab373).
